System: Human immunodeficiency virus
Experiment: Antiviral activity against HIV infected in human H9 cells assessed as viral replication
Type: functional, organism-based
Conditions: Human immunodeficiency virus 1, H9
The entries below are paired with their reported EC50.
MEASURED_ENDPOINT: EC50 (µg/mL)

[[record]]
compound = "CC(=O)OC[C@]1(O)C[C@@]23CC[C@H]4[C@@](C)(CCC[C@@]4(C)C(=O)O)[C@@H]2CC[C@H]1C3"
measured_endpoint = "EC50"
unit_abbrev = "µg/mL"
recorded_value = 85

[[record]]
compound = "COC(=O)[C@]1(OC(C)=O)C[C@@]23CC[C@H]4[C@@](C)(CCC[C@@]4(C)C=O)[C@@H]2CC[C@H]1C3 [ANNOGLABASIN A]"
measured_endpoint = "EC50"
unit_abbrev = "µg/mL"
recorded_value = 10

[[record]]
compound = "COC(=O)[C@H]1C[C@@]23CC[C@H]4[C@@](C)(CCC[C@@]4(C)C=O)[C@@H]2CC[C@H]1C3"
measured_endpoint = "EC50"
unit_abbrev = "µg/mL"
recorded_value = 5

[[record]]
compound = "CC1(C)CCC[C@]2(C)[C@@H]1CC[C@@]13C[C@H](CC[C@H]12)[C@H](C(=O)O)C3"
measured_endpoint = "EC50"
unit_abbrev = "µg/mL"
recorded_value = 24

[[record]]
compound = "Cc1cn([C@H]2C[C@H](N=[N+]=[N-])[C@@H](CO)O2)c(=O)[nH]c1=O [ZIDOVUDINE]"
measured_endpoint = "EC50"
unit_abbrev = "µg/mL"
recorded_value = 0.01

